- Test Summary: The drug is tested on the gut metagenome community of A-05 with ENA study accession number: PRJEB31790 for biotransformation under microaerobic condition. The drug concentrations were measured over 7 timepoints collected between 0 and 12 hours of incubation by liquid-chromatography-coupled mass spectrometry (LC–MS)
- Assay type: ADME
- Design: dose 5 uM, timepoint 0, 0.75, 1.5, 3, 6, 9, 12 hours
- Experimental Conditions: 5 µM
Endpoint Label: Bacterial Biotransformation

These recorded examples may help you get a feel for the data.
>>> observed_measurement("C[C@]12CCC(=O)C=C1CC[C@@H]1[C@@H]2[C@@H](O)C[C@@]2(C)[C@H]1CC[C@]2(O)C(=O)CO [HYDROCORTISONE]")
"Compound metabolized"
>>> observed_measurement("COc1c(C)c2c(c(O)c1C/C=C(\\C)CCC(=O)O)C(=O)OC2")
"Compound NOT metabolized"
>>> observed_measurement("C[C@H]1C[C@@H]2[C@H]([C@@H](O)C[C@@]3(C)[C@H]2CC[C@]3(O)C(=O)CO)[C@@]2(C)C=CC(=O)C=C12")
"Compound metabolized"
>>> observed_measurement("CCC(C)(C)C(=O)O[C@H]1C[C@@H](C)C=C2C=C[C@H](C)[C@H](CC[C@@H]3C[C@@H](O)CC(=O)O3)[C@H]21")
"Compound NOT metabolized"

Attention now shifts to the item below.
Data point: CN(Cc1cnc2nc(N)nc(N)c2n1)c1ccc(C(=O)N[C@@H](CCC(=O)O)C(=O)O)cc1 [METHOTREXATE] ; Bacterial Biotransformation = Compound NOT metabolized

---

- Test Summary: The drug is tested on the gut metagenome community of A-08 with ENA study accession number: PRJEB31790 for biotransformation under anaerobic condition. The drug concentrations were measured over 7 timepoints collected between 0 and 12 hours of incubation by liquid-chromatography-coupled mass spectrometry (LC–MS)
- Format: ADME
- Set-up: dose 5 uM, timepoint 0, 0.75, 1.5, 3, 6, 9, 12 hours
- Experimental Conditions: 5 µM
Endpoint Label: Bacterial Biotransformation

>>> observed_measurement("NS(=O)(=O)c1cc(C(=O)O)c(NCc2ccco2)cc1Cl [FUROSEMIDE]")
"Compound NOT metabolized"
>>> observed_measurement("CC(C)NCC(O)COc1ccc(CC(N)=O)cc1 (stereo not drawn)")
"Compound NOT metabolized"

---

- Test Summary: The drug is tested on the gut metagenome community of A-04 with ENA study accession number: PRJEB31790 for biotransformation under microaerobic condition. The drug concentrations were measured over 7 timepoints collected between 0 and 12 hours of incubation by liquid-chromatography-coupled mass spectrometry (LC–MS)
- Assay type: ADME
- Set-up: dose 5 uM, timepoint 0, 0.75, 1.5, 3, 6, 9, 12 hours
- Experimental Conditions: 5 µM
Endpoint Label: Bacterial Biotransformation

Known results for molecules:
>>> observed_measurement("CO[C@H]1C[C@@H]2CC[C@@H](C)[C@@](O)(O2)C(=O)C(=O)N2CCCC[C@H]2C(=O)O[C@H]([C@H](C)C[C@@H]2CC[C@@H](OCCO)[C@H](OC)C2)CC(=O)[C@H](C)/C=C(\\C)[C@@H](O)[C@@H](OC)C(=O)[C@H](C)C[C@H](C)/C=C/C=C/C=C/1C")
"Compound metabolized"
>>> observed_measurement("C=CC[C@@H]1/C=C(\\C)C[C@H](C)C[C@H](OC)[C@H]2O[C@@](O)(C(=O)C(=O)N3CCCC[C@H]3C(=O)O[C@H](/C(C)=C/[C@@H]3CC[C@@H](O)[C@H](OC)C3)[C@H](C)[C@@H](O)CC1=O)[C@H](C)C[C@@H]2OC.O")
"Compound metabolized"
>>> observed_measurement("CCC(C)(C)C(=O)O[C@H]1C[C@@H](C)C=C2C=C[C@H](C)[C@H](CC[C@@H]3C[C@@H](O)CC(=O)O3)[C@H]21")
"Compound NOT metabolized"
>>> observed_measurement("CCOC(=O)[C@H](CCc1ccccc1)N[C@@H](C)C(=O)N1[C@H](C(=O)O)C[C@@H]2CCC[C@@H]21")
"Compound NOT metabolized"

Bacterial Biotransformation measured on CC(C)NCC(O)COc1ccc(CC(N)=O)cc1 (stereo not given) = Compound NOT metabolized
